target-or-test-system: T1, recombinant mhm chimeric HGF protein containing the region I499-R556 of hHGF disposed between murine sequences (mouse-human-mouse chimera, UniProt Q08048 56-728)
T1 construct: also called mhm chimera (I499-R556)
T1 chain: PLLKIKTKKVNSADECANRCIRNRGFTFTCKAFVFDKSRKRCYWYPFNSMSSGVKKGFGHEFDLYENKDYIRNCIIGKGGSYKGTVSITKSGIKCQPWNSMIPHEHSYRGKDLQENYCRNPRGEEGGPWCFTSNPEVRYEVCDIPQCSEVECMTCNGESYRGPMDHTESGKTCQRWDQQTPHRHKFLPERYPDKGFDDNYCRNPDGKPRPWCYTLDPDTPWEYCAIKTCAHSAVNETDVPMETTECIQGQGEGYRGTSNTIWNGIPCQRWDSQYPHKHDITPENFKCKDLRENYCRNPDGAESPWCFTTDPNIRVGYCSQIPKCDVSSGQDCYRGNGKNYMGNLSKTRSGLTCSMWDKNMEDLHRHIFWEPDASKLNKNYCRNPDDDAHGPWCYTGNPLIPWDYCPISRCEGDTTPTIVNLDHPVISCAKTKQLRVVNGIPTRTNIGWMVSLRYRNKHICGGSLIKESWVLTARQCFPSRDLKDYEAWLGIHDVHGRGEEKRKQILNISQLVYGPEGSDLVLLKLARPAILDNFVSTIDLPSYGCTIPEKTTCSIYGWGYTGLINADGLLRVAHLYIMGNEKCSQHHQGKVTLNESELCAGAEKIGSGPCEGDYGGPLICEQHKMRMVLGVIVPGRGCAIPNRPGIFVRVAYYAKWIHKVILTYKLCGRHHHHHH
method-notes: SPR, antibody immobilized, HGF protein injected, 25 C
value-kind: binding result

HE2B8-1 (LR2B8HC + IgG1 constant region G1m(3) allotype allele 1, plus LR2B8LC + Kappa constant region Km(3) allotype allele 1) (antibody, V domains shown, Human Engineered 2B8 variant, human IgG1 kappa, made in HEK293E cells) VH: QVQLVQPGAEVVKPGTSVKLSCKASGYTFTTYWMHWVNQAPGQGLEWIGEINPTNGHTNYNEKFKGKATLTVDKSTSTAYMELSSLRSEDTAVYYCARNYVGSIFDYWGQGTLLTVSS VL: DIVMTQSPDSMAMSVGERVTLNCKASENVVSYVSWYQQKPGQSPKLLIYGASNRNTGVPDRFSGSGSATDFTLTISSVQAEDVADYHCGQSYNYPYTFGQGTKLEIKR | binds
HE2B8-4 (LRMR2B8HC + IgG1 constant region G1m(3) allotype allele 1, plus LRMR2B8LC + Kappa constant region Km(3) allotype allele 1) (antibody, V domains shown, Human Engineered 2B8 variant, human IgG1 kappa, made in HEK293E cells) VH: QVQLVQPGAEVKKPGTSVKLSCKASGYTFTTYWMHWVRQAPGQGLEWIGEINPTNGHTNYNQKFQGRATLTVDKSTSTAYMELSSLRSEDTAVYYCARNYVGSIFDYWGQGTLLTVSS VL: DIVMTQSPDSLAMSLGERVTLNCKASENVVSYVSWYQQKPGQSPKLLIYGASNRESGVPDRFSGSGSATDFTLTISSVQAEDVADYHCGQSYNYPYTFGQGTKLEIKR | binds
HE2B8-3 (LRMR2B8HC + IgG1 constant region G1m(3) allotype allele 1, plus LR2B8LC + Kappa constant region Km(3) allotype allele 1) (antibody, V domains shown, Human Engineered 2B8 variant, human IgG1 kappa, made in HEK293E cells) VH: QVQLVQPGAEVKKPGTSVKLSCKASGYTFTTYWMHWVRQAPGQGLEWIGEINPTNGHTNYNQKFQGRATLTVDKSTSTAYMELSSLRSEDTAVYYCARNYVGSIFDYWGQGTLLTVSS VL: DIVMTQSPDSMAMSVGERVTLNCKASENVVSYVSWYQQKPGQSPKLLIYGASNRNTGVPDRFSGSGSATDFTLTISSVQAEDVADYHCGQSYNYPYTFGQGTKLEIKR | binds
